Molecular target: GABA A receptor alpha-4/beta-3/gamma-2 (Homo sapiens, UniProt P18507+P28472+P48169)
Sequence (P48169 whole entry, one chain of several): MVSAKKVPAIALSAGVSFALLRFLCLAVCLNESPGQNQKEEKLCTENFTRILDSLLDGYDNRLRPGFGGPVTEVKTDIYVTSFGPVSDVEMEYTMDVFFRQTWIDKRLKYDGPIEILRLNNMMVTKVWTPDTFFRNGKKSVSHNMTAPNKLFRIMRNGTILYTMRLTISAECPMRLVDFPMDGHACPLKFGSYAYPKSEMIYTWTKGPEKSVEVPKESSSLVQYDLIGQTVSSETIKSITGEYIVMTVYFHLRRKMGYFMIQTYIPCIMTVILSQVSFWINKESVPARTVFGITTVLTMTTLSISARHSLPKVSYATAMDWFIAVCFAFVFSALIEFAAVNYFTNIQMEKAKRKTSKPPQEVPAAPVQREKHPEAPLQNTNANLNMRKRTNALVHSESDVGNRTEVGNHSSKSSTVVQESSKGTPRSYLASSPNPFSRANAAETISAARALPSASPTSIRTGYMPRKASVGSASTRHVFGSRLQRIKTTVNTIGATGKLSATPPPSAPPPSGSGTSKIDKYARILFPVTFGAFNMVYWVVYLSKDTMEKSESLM
Experiment: Antagonistic potency against human […] Gamma-aminobutyric acid A receptor alpha-4-beta-3-gamma-2
Give measured pKi for each item. Keep answers brief.
Please note pKi is a logarithmic value: minus log10 of concentration in mol/L. Answer with that number alone.

*Q* # pKi lookup, item `O=P(O)(O)C1CCNCC1`
*A* 2.51

*Q* # pKi lookup, item `CP(=O)(O)C1CCNCC1`
*A* 3.47

*Q* # pKi lookup, item `O=[PH](O)C1(O)CCNCC1`
*A* 2.68

* * *

Target: GABA-A receptor; alpha-3/beta-3/gamma-2 (Homo sapiens, UniProt P18507+P28472+P34903)
Sequence (P18507 whole entry): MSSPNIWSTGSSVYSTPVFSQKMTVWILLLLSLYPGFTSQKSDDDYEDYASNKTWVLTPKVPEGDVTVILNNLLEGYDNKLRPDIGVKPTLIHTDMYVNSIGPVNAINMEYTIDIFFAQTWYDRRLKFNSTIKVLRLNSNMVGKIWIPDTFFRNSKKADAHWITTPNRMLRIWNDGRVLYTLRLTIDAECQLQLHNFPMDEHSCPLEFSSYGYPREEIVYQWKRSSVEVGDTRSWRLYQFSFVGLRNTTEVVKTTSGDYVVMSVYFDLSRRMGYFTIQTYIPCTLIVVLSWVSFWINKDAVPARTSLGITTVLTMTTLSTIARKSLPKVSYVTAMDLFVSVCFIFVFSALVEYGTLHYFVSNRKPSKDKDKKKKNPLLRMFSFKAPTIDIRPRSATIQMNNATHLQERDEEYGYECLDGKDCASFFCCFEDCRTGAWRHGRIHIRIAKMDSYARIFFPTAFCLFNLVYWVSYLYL
Sequence (P28472 whole entry): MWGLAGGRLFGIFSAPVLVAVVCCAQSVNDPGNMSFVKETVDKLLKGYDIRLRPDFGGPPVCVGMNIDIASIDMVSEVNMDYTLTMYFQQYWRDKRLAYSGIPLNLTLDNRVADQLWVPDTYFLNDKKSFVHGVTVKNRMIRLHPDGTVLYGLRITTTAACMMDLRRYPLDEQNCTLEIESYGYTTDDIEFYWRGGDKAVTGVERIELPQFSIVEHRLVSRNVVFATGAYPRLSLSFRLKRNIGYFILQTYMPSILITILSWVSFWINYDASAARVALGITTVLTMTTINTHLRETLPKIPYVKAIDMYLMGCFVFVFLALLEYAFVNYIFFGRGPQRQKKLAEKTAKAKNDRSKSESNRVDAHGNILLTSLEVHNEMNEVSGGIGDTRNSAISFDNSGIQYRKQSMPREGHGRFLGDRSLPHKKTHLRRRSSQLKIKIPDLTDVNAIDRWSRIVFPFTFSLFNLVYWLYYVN
Sequence (P34903 whole entry): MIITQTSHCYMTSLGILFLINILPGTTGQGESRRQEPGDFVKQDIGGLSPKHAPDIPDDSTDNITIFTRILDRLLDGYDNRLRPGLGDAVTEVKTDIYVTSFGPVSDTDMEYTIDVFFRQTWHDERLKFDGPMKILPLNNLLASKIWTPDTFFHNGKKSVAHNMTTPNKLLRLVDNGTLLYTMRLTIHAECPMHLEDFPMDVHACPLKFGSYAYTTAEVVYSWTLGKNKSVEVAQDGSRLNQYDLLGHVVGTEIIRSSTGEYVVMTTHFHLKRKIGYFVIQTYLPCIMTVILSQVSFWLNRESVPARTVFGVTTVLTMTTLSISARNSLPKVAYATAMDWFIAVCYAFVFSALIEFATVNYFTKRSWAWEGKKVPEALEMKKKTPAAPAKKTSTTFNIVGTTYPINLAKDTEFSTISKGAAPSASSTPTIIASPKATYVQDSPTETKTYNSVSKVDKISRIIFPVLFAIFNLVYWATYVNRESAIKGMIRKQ
Test: Effective dose for agonist activity on activity on human Gamma-aminobutyric acid A receptor alpha-3-beta-3-gamma-2 expressed in Xenopus oocytes
Type: functional, cell-based, Oocyte
Measurement name: EC50 (µM)
// note: answer is a bare numeric in µM

*Q* # EC50 lookup, item O=C(O)C1CCNCC1 [ISONIPECOTIC ACID]
*A* 370
